Tested on: K562
assay-comment: NCI tumour cell line growth inhibition, 48 h
Calls of active or inactive are those of the source. Cut-off read from the data, not from the text of the source: active = GI50 up to about 1.1 µM and inactive = higher.
Please respond with reported GI50 for every item in the list.

Past entries and their recorded results:
molecule: O=[PH](O)c1cccs1
GI50: > 100 µM (inactive)
--
molecule: COc1ccc(C(=O)NCCC2CN(S(=O)(=O)C(F)(F)F)c3ccccc32)c(OC)c1 (configuration not stated)
GI50: 28.3 µM (inactive)
--
molecule: OC[C@H]1CC(c2nn[nH]n2)[C@H](O)[C@@H]1O (some centres not stated)
GI50: > 100 µM (inactive)
--
molecule: N#Cc1c2nc3ccccc3nc2n2ccccc12
GI50: > 100 µM (inactive)
--
molecule: N#CCCN(CCC#N)c1ccc(C(=N/c2ccc(F)cc2)/N=N/c2ccc(Cl)cc2)cc1
GI50: > 100 µM (inactive)
--
molecule: O=[N+]([O-])c1cc(F)ccc1Sc1ccccc1
GI50: > 10 µM (inactive)

Switching to the query record.
Give its GI50 value. Item: CC(=O)c1c2c(cc3c1CC1(C3)Cc3cc4c(c(C(=O)O)c3C1)CCC4)CCC2 (configuration not stated)
32.6 µM (inactive)

----------
System: A498
assay-comment: NCI tumour cell line growth inhibition, 48 h
Active and inactive are the calls of the source. No stated cut-off is given here; in the data, active = GI50 up to about 1.1 µM and inactive = higher.
value-type: GI50

molecule: C=C1C(=O)OC2CC1C(O)C/C(C)=C/CC/C(C)=C/C(O)CC2C (centres undefined)
value-type: GI50
observed-value: 3.24 µM (inactive)

molecule: CCCCCCCCCCCCCCCCSS(C)(=O)=O
value-type: GI50
observed-value: 52.4 µM (inactive)

molecule: CCc1cccc(CC)c1NC(=O)C1=CNC(C)=C(C(=O)Nc2c(CC)cccc2CC)C1c1ccc(O)c(OC)c1 (centres undefined)
value-type: GI50
observed-value: 24.7 µM (inactive)

Hey, quick one: what's GI50 for each of these?
1. CCCCCCCCOc1ccc(/C=C/C2=[N+](CCO)CCO2)cc1
2. C[C@H]1O[C@@H](c2c(O)ccc3ccccc23)C[C@@H](N(C)C)C1O (some centres undefined)
3. CCCCc1ccc(Nc2cc(=O)n(C)c(=O)[nH]2)cc1
4. C=CCN1C[C@H](C)N([C@H](c2ccc(C(=O)N(CC)CC)cc2)c2cccc(OC)c2)C[C@H]1C

1. 2.9 µM (inactive)
2. 51.9 µM (inactive)
3. > 100 µM (inactive)
4. 13 µM (inactive)

----------
System: SF-295
assay-comment: NCI tumour cell line growth inhibition, 48 h
The source made the active and inactive calls. Rule as the data show it: active = GI50 up to about 1.1 µM and inactive = higher.
value-type: GI50

compound: N#CC1(C2SCC[S+]2[O-])C2=C(C(=O)c3ccccc3C2=O)N2CCCC21 (stereo unspecified)
GI50: 1.99 µM (inactive)
//
compound: CC1OC(n2ncc(=O)[nH]c2=O)C=CC1=O (stereo unspecified)
GI50: 52.6 µM (inactive)
//
compound: Nc1nc2c(ncn2C2CCC(CO)O2)c(=O)n1C(=O)c1ccccc1 (stereo unspecified)
GI50: > 100 µM (inactive)
//
compound: N#C/N=C(/N)NCc1ccccc1
GI50: > 100 µM (inactive)
//
compound: COc1cc(C2(O)c3ccccc3C3=NCCN32)cc(OC)c1OC (stereo unspecified)
GI50: > 100 µM (inactive)
//
compound: Cc1cc(NCCCCCCCCNc2cc(C)nc3cc(N)ccc23)c2ccc(N)cc2n1
GI50: 18.2 µM (inactive)
//
compound: CCCCN(C)C(=O)C1=C(C)NC(C)=C(C(=O)N(C)CCCC)C1
GI50: > 100 µM (inactive)
//
compound: CC(=O)Nc1ccc(S(=O)(=O)c2nnc(NC(C)=O)s2)cc1
GI50: 25.5 µM (inactive)

The following compounds each have a reported value; give each one's GI50.
1. N=c1sc(N2CCOCC2)nn1CC(=O)c1ccccc1
2. CC(=O)c1c2c(cc3c1CC1(C3)Cc3cc4c(c(C(=O)O)c3C1)CCC4)CCC2 (stereo unspecified)
3. CC1C(=O)OC2CC[N+]3([O-])CC=C(COC(=O)C(C)(O)C1(C)O)C23 (stereo unspecified)
4. C/C(=N/NC(=S)N1CCCCCC1)c1ccccc1O

["> 100 µM (inactive)", "38.9 µM (inactive)", "> 100 µM (inactive)", "4.8 µM (inactive)"]
